Target: JAK3 (Homo sapiens, UniProt P52333)
Construct: purchased Life technology
Sequence (P52333 1-1124): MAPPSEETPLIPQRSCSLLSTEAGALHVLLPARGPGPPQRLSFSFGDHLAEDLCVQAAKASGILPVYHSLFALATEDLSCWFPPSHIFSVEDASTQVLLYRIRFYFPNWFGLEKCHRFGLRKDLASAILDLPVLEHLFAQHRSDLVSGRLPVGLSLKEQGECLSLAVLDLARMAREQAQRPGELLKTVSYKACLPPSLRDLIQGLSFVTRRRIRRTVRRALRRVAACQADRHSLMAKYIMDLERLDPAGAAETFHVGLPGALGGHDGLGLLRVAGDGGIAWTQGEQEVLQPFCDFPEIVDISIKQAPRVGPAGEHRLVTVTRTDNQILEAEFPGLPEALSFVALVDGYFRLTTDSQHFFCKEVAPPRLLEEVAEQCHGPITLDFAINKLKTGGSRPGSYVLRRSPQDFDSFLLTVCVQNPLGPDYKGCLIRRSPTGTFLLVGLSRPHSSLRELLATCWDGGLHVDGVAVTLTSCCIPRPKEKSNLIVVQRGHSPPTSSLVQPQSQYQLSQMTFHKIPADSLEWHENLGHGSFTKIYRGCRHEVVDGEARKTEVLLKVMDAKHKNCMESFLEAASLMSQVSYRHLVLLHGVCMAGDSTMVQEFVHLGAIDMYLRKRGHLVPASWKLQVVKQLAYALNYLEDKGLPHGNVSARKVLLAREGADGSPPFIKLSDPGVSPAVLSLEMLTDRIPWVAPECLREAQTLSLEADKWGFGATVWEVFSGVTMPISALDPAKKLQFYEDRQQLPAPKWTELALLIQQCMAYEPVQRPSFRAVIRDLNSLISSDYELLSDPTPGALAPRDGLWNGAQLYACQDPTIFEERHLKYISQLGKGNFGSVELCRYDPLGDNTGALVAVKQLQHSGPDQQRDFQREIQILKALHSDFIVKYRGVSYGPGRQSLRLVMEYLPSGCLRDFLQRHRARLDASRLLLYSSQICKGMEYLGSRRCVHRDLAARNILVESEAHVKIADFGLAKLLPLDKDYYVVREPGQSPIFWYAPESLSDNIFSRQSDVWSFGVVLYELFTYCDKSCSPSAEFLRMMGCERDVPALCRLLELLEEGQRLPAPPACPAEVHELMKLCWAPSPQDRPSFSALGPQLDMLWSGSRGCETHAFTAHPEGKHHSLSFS
Test: Test for in vitro activity of JAK3 kinase (LANCE Ultra ULight-JAK-1 peptide)
Type: biochemical
Conditions: selectivity ratio JAK3 versus JAK2; class symbol
readout.name: JAK3/JAK2 (times)

// below: answered compounds
# input Need JAK3/JAK2 (times) of N#CCC1(n2cc(-c3cccn4nc(NC(=O)C(F)(F)F)nc34)cn2)CN(S(=O)(=O)C2CC2)C1 , thanks.
# output F3 (10 < F3 ≤ 25)

# input Do the same for N#CCC1(n2cc(-c3cccc4nc(NC(=O)C5CC5)nn34)cn2)CN(S(=O)(=O)C(F)(F)F)C1 please
# output F4 (25 < F4 ≤ 100)

# input Do the same for CCS(=O)(=O)N1CC(CC#N)(n2cc(-c3nccn4nc(NC(=O)C5CC5)nc34)cn2)C1 please
# output F3 (10 < F3 ≤ 25)

# input Do the same for N#CCC1(n2cc(-c3nccc4nc(NC(=O)C5CC5)nn34)cn2)CN(S(=O)(=O)C2CC2)C1 please
# output F3 (10 < F3 ≤ 25)

Next:
# input Need JAK3/JAK2 (times) of CCS(=O)(=O)N1CC(CC#N)(n2cc(-c3nccc4nc(NC(=O)C5CC5)nn34)cn2)C1 , thanks.
# output F3 (10 < F3 ≤ 25)

# input Do the same for CS(=O)(=O)N1CC(CC#N)(n2cc(-c3cccc4nc(N)nn34)cn2)C1 please
# output F3 (10 < F3 ≤ 25)

# input Do the same for N#CCC1(n2cc(-c3nccc4nc(NC(=O)C5CC(F)(F)C5)nn34)cn2)CN(S(=O)(=O)C(F)(F)F)C1 please
# output F3 (10 < F3 ≤ 25)

# input Do the same for N#CCC1(n2cc(-c3cccc4nc(N)nn34)cn2)CN(S(=O)(=O)C(F)(F)F)C1 please
# output F3 (10 < F3 ≤ 25)

# input Do the same for N#CCC1(n2cc(-c3nccc4nc(N)nn34)cn2)CN(S(=O)(=O)C(F)(F)F)C1 please
# output F3 (10 < F3 ≤ 25)

# input Do the same for N#CCC1(n2cc(-c3cccc4nc(NC(=O)C5CC5)nn34)cn2)CN(S(=O)(=O)C(F)F)C1 please
# output F4 (25 < F4 ≤ 100)

# input Do the same for CN(C)Cc1cc(C(=O)N2CCC(N3CC(CC#N)(n4cc(-c5cccc6nc(NC(=O)C7CC7)nn56)cn4)C3)CC2)nc(C(F)(F)F)n1 please
# output F3 (10 < F3 ≤ 25)
